- Test system: Saccharomyces cerevisiae BY4741 SeMeCo community
- assay.notes: z-score of subpopulation abundance vs DMSO median, subpopulation auxotrophic for M; higher = larger share of this subpopulation than in DMSO controls
- conditions: 10 µM; 24 h; SM minimal medium; subpopulation (auxotrophy): M
Counter-ions that a name gives are not always drawn.
Entry flag: 1 if z-score of subpopulation abundance reaches -0.2; 0 if it does not.

{"columns": ["compound", "cat"],
 "data": [
  ["CCC1=C(C)CN(C(=O)NCCc2ccc(S(=O)(=O)NC(=O)N[C@H]3CC[C@H](C)CC3)cc2)C1=O [Glimepiride]", 0],
  ["Cc1c(OCC(F)(F)F)ccnc1C[S+]([O-])c1nc2ccccc2[nH]1 (stereo not drawn)", 0],
  ["Cc1cccc(C)c1OCC(C)N (stereo not drawn) [Mexiletine HCl]", 0],
  ["O=C(Nc1cccc(C2=NCCN2)c1)Nc1cccc(C2=NCCN2)c1 [Imidocarb dipropionate]", 0],
  ["COc1ccc(CN2CCN(C(c3ccc(F)cc3)c3ccc(F)cc3)CC2)c(OC)c1OC [Lomerizine 2HCl]", 0],
  ["CO/N=C(\\C(=O)N[C@@H]1C(=O)N2C(C(=O)O)=C(CSc3nnnn3C)CS[C@H]12)c1csc(N)n1 [Cefmenoxime hydrochloride]", 1],
  ["C[C@@H](O)[C@H]1C(=O)N2C(C(=O)[O-])=C(SC3Cn4cnc[n+]4C3)[C@H](C)[C@H]12 (stereo partly drawn)", 1],
  ["OCCOc1ccc(/C(=C(/CCCl)c2ccccc2)c2ccccc2)cc1", 1]
]}

----------
- Tested on: Saccharomyces cerevisiae BY4741 SeMeCo community
- assay.notes: z-score of subpopulation abundance vs DMSO median, subpopulation auxotrophic for HLU; higher = larger share of this subpopulation than in DMSO controls
- conditions: 10 µM; 24 h; SM minimal medium; subpopulation (auxotrophy): HLU
Structures can show the parent of a compound that is named as a salt.
Entry flag: met if z-score of subpopulation abundance reaches -0.02; not met if it does not.

{"columns": ["compound", "test.system", "cat"],
 "data": [
  ["CN[C@@H]1[C@H](O[C@H]2[C@H](O[C@H]3[C@H](O)[C@@H](O)[C@H](NC(=N)N)[C@@H](O)[C@@H]3NC(=N)N)O[C@@H](C)[C@]2(O)CO)O[C@@H](CO)[C@H](O)[C@H]1O [Dihydrostreptomycin sulfate]", "Saccharomyces cerevisiae BY4741 SeMeCo community", "not met"],
  ["CSCC1CN(/N=C/c2ccc([N+](=O)[O-])o2)C(=O)O1 (stereo unspecified)", "Saccharomyces cerevisiae BY4741 SeMeCo community", "not met"],
  ["CCC(=O)NS(=O)(=O)c1ccc(-c2c(-c3ccccc3)noc2C)cc1 [Parecoxib Sodium]", "Saccharomyces cerevisiae BY4741 SeMeCo community", "met"],
  ["CC1=C(C(=O)OCCN(Cc2ccccc2)c2ccccc2)C(c2cccc([N+](=O)[O-])c2)C(P2(=O)OCC(C)(C)CO2)=C(C)N1 (stereo unspecified)", "Saccharomyces cerevisiae BY4741 SeMeCo community", "met"],
  ["O=C(CCCN1CC=C(n2c(=O)[nH]c3ccccc32)CC1)c1ccc(F)cc1", "Saccharomyces cerevisiae BY4741 SeMeCo community", "not met"],
  ["CS(=O)(=O)c1ccc([C@@H](O)[C@@H](CO)NC(=O)C(Cl)Cl)cc1", "Saccharomyces cerevisiae BY4741 SeMeCo community", "not met"],
  ["C#CCC(Cc1cnc2nc(N)nc(N)c2n1)c1ccc(C(=O)N[C@@H](CCC(=O)O)C(=O)O)cc1 (stereo partly specified) [Pralatrexate]", "Saccharomyces cerevisiae BY4741 SeMeCo community", "met"],
  ["O=C1CN(/N=C/c2ccc(-c3ccc([N+](=O)[O-])cc3)o2)C(=O)N1 [Dantrolene sodium]", "Saccharomyces cerevisiae BY4741 SeMeCo community", "not met"],
  ["Clc1ccc(CCC(Cn2ccnc2)Sc2c(Cl)cccc2Cl)cc1 (stereo unspecified) [Butoconazole]", "Saccharomyces cerevisiae BY4741 SeMeCo community", "met"],
  ["OC(CCN1CCCCC1)(c1ccccc1)C1CCCCC1 (stereo unspecified) [Trihexyphenidyl hydrochloride]", "Saccharomyces cerevisiae BY4741 SeMeCo community", "not met"],
  ["CCCCC(=O)O[C@H]1CC[C@H]2[C@@H]3CCc4cc(O)ccc4[C@H]3CC[C@]12C [Estradiol valerate]", "Saccharomyces cerevisiae BY4741 SeMeCo community", "met"],
  ["CCN(CC)CCNC(=O)c1cc(S(C)(=O)=O)ccc1OC [Tiapride Hydrochloride]", "Saccharomyces cerevisiae BY4741 SeMeCo community", "met"],
  ["Cc1ccnc(NS(=O)(=O)c2ccc(N)cc2)n1", "Saccharomyces cerevisiae BY4741 SeMeCo community", "met"],
  ["OCc1ccc(Cl)cc1Cl", "Saccharomyces cerevisiae BY4741 SeMeCo community", "met"],
  ["Cc1c(-c2ccccc2)oc2c(C(=O)OCCN3CCCCC3)cccc2c1=O [Flavoxate HCl]", "Saccharomyces cerevisiae BY4741 SeMeCo community", "met"],
  ["COc1cccc(CCc2ccccc2OCC(CN(C)C)OC(=O)CCC(=O)O)c1 (stereo unspecified) [Sarpogrelate hydrochloride]", "Saccharomyces cerevisiae BY4741 SeMeCo community", "not met"],
  ["O=C(O)c1ccccc1C(=O)Nc1ccc(S(=O)(=O)Nc2nccs2)cc1", "Saccharomyces cerevisiae BY4741 SeMeCo community", "met"],
  ["CO/N=C(\\C(=O)N[C@@H]1C(=O)N2C(C(=O)OC(C)OC(C)=O)=C(COC(N)=O)CS[C@H]12)c1ccco1 (stereo partly specified)", "Saccharomyces cerevisiae BY4741 SeMeCo community", "not met"],
  ["Cc1[nH]c(=O)c(C#N)cc1-c1ccncc1", "Saccharomyces cerevisiae BY4741 SeMeCo community", "not met"],
  ["CCOC(=O)C1=C(COCCN)NC(C)=C(C(=O)OC)C1c1ccccc1Cl (stereo unspecified) [Amlodipine Besylate]", "Saccharomyces cerevisiae BY4741 SeMeCo community", "not met"],
  ["COC(=O)C1=C(C)NC(C)=C(C(=O)OC(C)C)C1c1cccc2nonc12 (stereo unspecified)", "Saccharomyces cerevisiae BY4741 SeMeCo community", "met"],
  ["NS(=O)(=O)Cc1noc2ccccc12 [Zonisamide]", "Saccharomyces cerevisiae BY4741 SeMeCo community", "met"],
  ["CCCN1CCCC[C@H]1C(=O)Nc1c(C)cccc1C", "Saccharomyces cerevisiae BY4741 SeMeCo community", "not met"],
  ["CC(=O)OC1CC2(C)C(CC(O)C3C4(C)CCC(O)C(C)C4CCC32C)C1=C(CCC=C(C)C)C(=O)O (stereo unspecified)", "Saccharomyces cerevisiae BY4741 SeMeCo community", "met"],
  ["Nc1ccc(S(=O)(=O)NC(=O)c2ccccc2)cc1 [Sulfabenzamide]", "Saccharomyces cerevisiae BY4741 SeMeCo community", "met"],
  ["C[C@@H]1[C@H](O)[C@@H](C)/C=C/C=C/C=C/C=C/C=C/C=C/C=C/[C@H](O[C@@H]2O[C@H](C)[C@@H](O)[C@H](N)[C@@H]2O)C[C@@H]2O[C@](O)(C[C@@H](O)C[C@@H](O)[C@H](O)CC[C@@H](O)C[C@@H](O)CC(=O)O[C@H]1C)C[C@H](O)[C@H]2C(=O)O", "Saccharomyces cerevisiae BY4741 SeMeCo community", "met"],
  ["Cc1cc(C)nc(O)n1.O=C(Nc1ccc([N+](=O)[O-])cc1)Nc1ccc([N+](=O)[O-])cc1", "Saccharomyces cerevisiae BY4741 SeMeCo community", "not met"],
  ["NC(=O)c1cn(Cc2c(F)cccc2F)nn1 [Rufinamide]", "Saccharomyces cerevisiae BY4741 SeMeCo community", "met"],
  ["CN(C)CCN1C(=O)c2cccc3cc(N)cc(c23)C1=O [Amonafide]", "Saccharomyces cerevisiae BY4741 SeMeCo community", "met"]
]}

----------
- System: Saccharomyces cerevisiae BY4741 SeMeCo community
- assay.notes: z-score of subpopulation abundance vs DMSO median, subpopulation auxotrophic for H; higher = larger share of this subpopulation than in DMSO controls
- conditions: 10 µM; 24 h; SM minimal medium; subpopulation (auxotrophy): H
Entry flag: Y if z-score of subpopulation abundance reaches -0.8; N if it does not.

{"columns": ["compound", "cat"],
 "data": [
  ["COCCCOc1ccnc(C[S+]([O-])c2nc3ccccc3[nH]2)c1C (stereo not given) [Rebeprazole sodium]", "Y"],
  ["Oc1c(I)cc(I)c2cccnc12 [Diiodohydroxyquinoline]", "Y"],
  ["CO/N=C(\\C(=O)N[C@@H]1C(=O)N2C(C(=O)O)=C(COC(N)=O)CS[C@H]12)c1ccco1 [Cefuroxime sodium]", "N"],
  ["CN(C)CC/C=C1/c2ccccc2Sc2ccc(Cl)cc21", "N"],
  ["O=C1Nc2ccccc2C1=O", "Y"]
]}

----------
The entries below come with measured z-score of subpopulation abundance values attached.
- Tested on: Saccharomyces cerevisiae BY4741 SeMeCo community
- assay.notes: z-score of subpopulation abundance vs DMSO median, subpopulation auxotrophic for H; higher = larger share of this subpopulation than in DMSO controls
- conditions: 10 µM; 24 h; SM minimal medium; subpopulation (auxotrophy): H
Where a name gives a salt, the structure may show the parent alone.

{"columns": ["molecule", "z-score of subpopulation abundance"],
 "data": [
  ["COC(=O)C1=C(C)NC(C)=C(C(=O)OC)C1c1ccccc1[N+](=O)[O-]", 0.64],
  ["COc1cnc(NS(=O)(=O)c2ccc(N)cc2)nc1", -0.43],
  ["COc1cc2c(cc1OC)-c1cc3ccc(OC)c(OC)c3c[n+]1CC2", -0.08],
  ["CCN(CC)CCNC(=O)c1cc(Cl)c(N)cc1OC [Metoclopramide HCl]", -1.04],
  ["Cc1onc(-c2ccccc2)c1-c1ccc(S(N)(=O)=O)cc1", -0.55],
  ["CC(=O)OC1CC2(C)C(CC(O)C3C4(C)CCC(O)C(C)C4CCC32C)C1=C(CCC=C(C)C)C(=O)O (stereo not given)", 2.59],
  ["CN(C)CCn1nnnc1SCC1=C(C(=O)O)N2C(=O)[C@@H](NC(=O)Cc3csc(N)n3)[C@H]2SC1 [Cefotiam hydrochloride]", 1.72],
  ["CNCC[C@H](Oc1cccc2ccccc12)c1cccs1 [Duloxetine]", -0.81],
  ["CC(=O)OCC1=C(C(=O)O)N2C(=O)[C@@H](NC(=O)CSc3ccncc3)[C@H]2SC1", 1.45],
  ["C[C@@H]1[C@H](O)[C@@H](C)/C=C/C=C/C=C/C=C/C=C/C=C/C=C/[C@H](O[C@@H]2O[C@H](C)[C@@H](O)[C@H](N)[C@@H]2O)C[C@@H]2O[C@](O)(C[C@@H](O)C[C@@H](O)[C@H](O)CC[C@@H](O)C[C@@H](O)CC(=O)O[C@H]1C)C[C@H](O)[C@H]2C(=O)O", -5.04],
  ["NC[C@@H]1O[C@H](O[C@H]2[C@@H](O)[C@H](O[C@@H]3[C@@H](O)[C@H](N)C[C@H](N)[C@H]3O[C@H]3O[C@H](CO)[C@@H](O)[C@H](O)[C@H]3N)O[C@@H]2CO)[C@H](N)[C@@H](O)[C@@H]1O [Paromomycin Sulfate]", 0.2],
  ["CCCCN1CCCC[C@H]1C(=O)Nc1c(C)cccc1C [Levobupivacaine HCl]", -0.68],
  ["CC(C)(O/N=C(\\C(=O)N[C@@H]1C(=O)N2C(C(=O)[O-])=C(C[n+]3ccccc3)CS[C@H]12)c1csc(N)n1)C(=O)O", 0.63],
  ["CN1C(C(=O)Nc2ccccn2)=C(O)c2ccccc2S1(=O)=O", -0.62],
  ["CCCc1nc(C)c2c(=O)nc(-c3cc(S(=O)(=O)N4CCN(CC)CC4)ccc3OCC)[nH]n12 [Vardenafil HCl Trihydrate]", 0.41],
  ["CNCC[C@H](Oc1cccc2ccccc12)c1cccs1 [Duloxetine HCl]", -0.45],
  ["C#CCN(C)Cc1ccccc1 [Pargyline hydrochloride]", -0.83],
  ["NC(=N\\CCCCCC/N=C(N)/N=C(\\N)Nc1ccc(Cl)cc1)/N=C(\\N)Nc1ccc(Cl)cc1 [Chlorhexidine diacetate]", 0.93],
  ["COC(=O)C1=C(C#N)NC(C)=C(C(=O)OC(C)C)C1c1cccc([N+](=O)[O-])c1 (stereo not given)", 1.45],
  ["CO/N=C(/C(=O)N[C@@H]1C(=O)N2C(C(=O)OCOC(=O)C(C)(C)C)=C(C)CS[C@H]12)c1csc(N)n1 [Cefetamet pivoxil hydrochloride]", 1.26],
  ["Nc1c2c(nc3ccccc13)CCCC2 [Tacrine hydrochloride hydrate]", -0.99],
  ["CC1(C)S[C@@H]2[C@H](NC(=O)C(c3ccccc3)S(=O)(=O)O)C(=O)N2[C@H]1C(=O)O (stereo not given in full) [Sulbenicillin Sodium]", 1.2],
  ["COc1ccc2[nH]c([S+]([O-])Cc3ncc(C)c(OC)c3C)nc2c1 (stereo not given) [Omeprazole]", 1.65],
  ["Cc1cc(C)nc(NS(=O)(=O)c2ccc(N)cc2)n1 [Sulfamethazine]", 0.21],
  ["C#C[C@]1(O)CC[C@H]2[C@@H]3CCc4cc(O)ccc4[C@H]3CC[C@@]21C", 0.36],
  ["CCCCc1oc2ccc(NS(C)(=O)=O)cc2c1C(=O)c1ccc(OCCCN(CCCC)CCCC)cc1 [Dronedarone HCl]", 1.17],
  ["CN(C)CCCN1c2ccccc2CCc2ccc(Cl)cc21 [Clomipramine HCl]", -0.49],
  ["Cc1cc(C)nc(NS(=O)(=O)c2ccc(N)cc2)n1 [Sulfamethazine Sodium Salt]", 0.36],
  ["NC(=O)c1cnccn1 [Pyrazinamide]", -0.45],
  ["C[C@]12CCC(=O)C=C1[C@@H]1C[C@@H]1[C@H]1[C@@H]3[C@@H]4C[C@@H]4[C@@]4(CCC(=O)O4)[C@@]3(C)CC[C@@H]12", -0.17]
]}
